Origin of values: the supplement of paper PMC7877785

assay: self-splicing fitness, log relative to wild type (ln ratio); higher = more splicing; Tetrahymena group I intron in knt gene, E. coli kanamycin selection, DiMSum; sequences stand for … in CUCUCU…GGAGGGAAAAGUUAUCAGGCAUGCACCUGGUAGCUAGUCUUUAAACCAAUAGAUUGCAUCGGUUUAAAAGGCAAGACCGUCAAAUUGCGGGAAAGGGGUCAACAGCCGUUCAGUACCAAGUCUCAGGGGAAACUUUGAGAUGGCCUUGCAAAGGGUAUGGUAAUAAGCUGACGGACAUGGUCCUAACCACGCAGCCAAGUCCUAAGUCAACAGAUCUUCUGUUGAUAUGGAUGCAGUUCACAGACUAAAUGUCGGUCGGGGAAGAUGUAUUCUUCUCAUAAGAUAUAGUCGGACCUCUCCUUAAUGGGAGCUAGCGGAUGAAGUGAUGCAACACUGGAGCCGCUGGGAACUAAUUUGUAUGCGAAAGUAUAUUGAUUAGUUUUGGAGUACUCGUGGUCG; conditions: 37 °C;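 note: selection with 25 µg/mL kanamycin versus none on LB agar overnight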
Hi, to clarify the labels: true covers self-splicing fitness (ln) from -2 upward, false covers anything below -2.

CACCAGCAAUAUUACGGUUC    true
GAUUAGCAAUAUUACGUUAG    false
GGCUAGCAAUAUUACGAAAA    true
GGACAGCAAUAUUACGUUGG    true
AGUUAGCAAUAUUACGGAAC    false

# bool: self-splicing fitness (ln) of GAGCAGCAAUAUUACGUACC >= -2
true

Item GGUCAGCAAUAUUACGGUCC with self-splicing fitness (ln) of -2 or above?
true

* * *

Recorded self-splicing fitness (ln), one value per entry.
test: self-splicing fitness, log relative to wild type (ln ratio); higher = more splicing; Tetrahymena group I intron in knt gene, E. coli kanamycin selection, DiMSum; sequences stand for … in CUCUCU…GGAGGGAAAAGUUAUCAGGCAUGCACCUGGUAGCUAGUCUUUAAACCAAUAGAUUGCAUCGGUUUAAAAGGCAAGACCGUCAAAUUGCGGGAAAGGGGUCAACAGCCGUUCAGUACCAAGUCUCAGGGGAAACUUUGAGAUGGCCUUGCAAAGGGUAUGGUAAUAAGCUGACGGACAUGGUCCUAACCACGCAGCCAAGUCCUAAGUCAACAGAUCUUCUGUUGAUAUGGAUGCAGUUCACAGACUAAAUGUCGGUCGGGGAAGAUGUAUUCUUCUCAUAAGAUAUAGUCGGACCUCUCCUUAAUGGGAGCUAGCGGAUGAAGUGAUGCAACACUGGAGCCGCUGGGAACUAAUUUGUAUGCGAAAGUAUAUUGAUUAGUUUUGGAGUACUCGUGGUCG; details: 30 °C
Just the number, please, no unit attached.

Annotate the sequence GUGUAGCAAUAUUACGACUG with its measured self-splicing fitness (ln).
-1.71

State, in one line, measured self-splicing fitness (ln) of ACAAAGCAAUAUUACGAUAA
-1.38

Note self-splicing fitness (ln) for the sequence shown: GGACAGCAAUAUUACGGGAU
-2.05

Please list self-splicing fitness (ln) recorded for the sequence GUCUAGCAAUAUUACGGCAC
-0.276

* * *

assay: self-splicing fitness, log relative to wild type (ln ratio); higher = more splicing; Tetrahymena group I intron in knt gene, E. coli kanamycin selection, DiMSum; sequences stand for … in CUCUCU…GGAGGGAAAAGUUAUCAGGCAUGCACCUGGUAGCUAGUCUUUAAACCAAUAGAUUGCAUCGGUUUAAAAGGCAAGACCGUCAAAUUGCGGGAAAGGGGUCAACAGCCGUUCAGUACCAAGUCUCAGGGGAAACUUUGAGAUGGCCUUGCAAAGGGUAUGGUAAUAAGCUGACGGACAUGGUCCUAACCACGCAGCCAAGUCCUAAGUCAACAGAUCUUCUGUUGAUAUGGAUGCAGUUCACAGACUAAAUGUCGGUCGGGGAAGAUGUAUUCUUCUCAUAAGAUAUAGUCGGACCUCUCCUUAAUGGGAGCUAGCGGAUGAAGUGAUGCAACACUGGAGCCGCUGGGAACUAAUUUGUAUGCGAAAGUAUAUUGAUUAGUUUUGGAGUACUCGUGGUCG; conditions: 30 °C
The label depends only on self-splicing fitness (ln): MET if it is at least -3, NOT MET if it is smaller.

Known results for sequences:
GGAGAGCAAUAUUACGCGGU    NOT MET
AUACAGCAAUAUUACGCCUC    MET
GCAUAGCAAUAUUACGCGAU    NOT MET

Evaluate UGUCAGCAAUAUUACGAUCC : self-splicing fitness (ln) at minimum -3?
MET

Tell me whether self-splicing fitness (ln) is at least -3 here: UGCCAGCAAUAUUACGAAUC
NOT MET

Assess whether reported self-splicing fitness (ln) for AUGUAGCAAUAUUACGCAUG sits at -3 or higher.
MET

Test whether the sequence GGAAAGCAAUAUUACGAAGA records self-splicing fitness (ln) of -3 or higher.
MET

Tell me whether self-splicing fitness (ln) is at least -3 here: GAACAGCAAUAUUACGCUCU
MET

Dear colleague, could you confirm whether CAUCAGCAAUAUUACGACGA has self-splicing fitness (ln) at or above -3?
MET

Record UUAUAGCAAUAUUACGUCCG ; criterion: self-splicing fitness (ln) no lower than -3. Met?
MET

Could you verify whether the entry GGUUAGCAAUAUUACGUGUG shows self-splicing fitness (ln) of no less than -3?
MET

Item GUUAAGCAAUAUUACGGAUC with self-splicing fitness (ln) of -3 or above?
MET

Please indicate if the recorded self-splicing fitness (ln) for AGCCAGCAAUAUUACGGUAU meets or exceeds -3.
MET

Given the entry UCACAGCAAUAUUACGAUCA , answer whether its self-splicing fitness (ln) meets or surpasses -3.
MET

Confirm if self-splicing fitness (ln) reported for the sequence GCAAAGCAAUAUUACGUACA is -3 or above.
MET

Can CAAGAGCAAUAUUACGGUAG be said to have self-splicing fitness (ln) at or above -3?
MET

Tell me whether self-splicing fitness (ln) is at least -3 here: GUCUAGCAAUAUUACGUGUC
MET

Exam item: decide whether the reported self-splicing fitness (ln) for CCCAAGCAAUAUUACGGCAA is at least -3.
MET

Threshold query (self-splicing fitness (ln) >= -3) on UGUGAGCAAUAUUACGCAUA
MET
